Recorded values, source ChEMBL document CHEMBL2331223.

Experiment: Selectivity index, ratio of IC50 for CHO cells to IC50 for chloroquine-sensitive Plasmodium falciparum D10
Type: toxicity, cell-based
Conditions: hamster, read-out: Ratio IC50
Quick rule for you: selectivity ratio at 20 or higher means true (1), lower means false (0).

INSERT INTO assay_data (molecule, group) VALUES
  ('Clc1ccc(CNC[C@H]2C[C@@]3(c4ccccc4)CCN2C3)cc1 (relative stereo)', 'false (0)');

Q: Say whether c1ccc(CNC[C@@H]2C[C@@]3(c4ccccc4)CCN2C3)cc1 (relative stereo) shows selectivity ratio of 20 or more.
Result: true (1)

Q: Say whether Clc1ccc(CNC[C@@H]2C[C@@]3(c4ccccc4)CCN2C3)cc1 (relative stereo) shows selectivity ratio of 20 or more.
Result: true (1)

Q: Say whether Cc1ccc(CNC[C@H]2C[C@@]3(c4ccccc4)CCN2C3)cc1 (relative stereo) shows selectivity ratio of 20 or more.
Result: false (0)

Q: Say whether Cc1ccc(CNC[C@@H]2C[C@@]3(c4ccccc4)CCN2C3)cc1 (relative stereo) shows selectivity ratio of 20 or more.
Result: true (1)

----------
System: Plasmodium falciparum
Experiment: Resistant index, ratio of IC50 for chloroquine-resistant Plasmodium falciparum Dd2 to IC50 for chloroquine-sensitive Plasmodium falciparum D10
Type: functional
PROPERTY MEASURED: Ratio IC50
The response must contain the number and no unit.

INSERT INTO assay_data (compound, property_measured, measured) VALUES
  ('Cc1ccc(CNC[C@@H]2C[C@@]3(c4ccccc4)CCN2C3)cc1 (relative stereo)', 'Ratio IC50', 12.5),
  ('c1ccc(CNC[C@@H]2C[C@@]3(c4ccccc4)CCN2C3)cc1 (relative stereo)', 'Ratio IC50', 9.6),
  ('c1ccc(CNC[C@H]2C[C@@]3(c4ccccc4)CCN2C3)cc1 (relative stereo)', 'Ratio IC50', 4.4),
  ('Cc1ccc(CNC[C@H]2C[C@@]3(c4ccccc4)CCN2C3)cc1 (relative stereo)', 'Ratio IC50', 1.5),
  ('Clc1ccc(CNC[C@@H]2C[C@@]3(c4ccccc4)CCN2C3)cc1 (relative stereo)', 'Ratio IC50', 1.7);

Continue with the next compound.
Ratio IC50 on Plasmodium falciparum for Clc1ccc(CNC[C@H]2C[C@@]3(c4ccccc4)CCN2C3)cc1 (relative stereo) is 2

----------
IC50 values by entry
Tested on: Plasmodium falciparum
Assay: Antimalarial activity against chloroquine-resistant Plasmodium falciparum Dd2
Type: functional, organism-based
State the answer as a number, implicitly in µM.

A selection of reference data follows.
INSERT INTO assay_data (molecule, property_measured, measured) VALUES
  ('Clc1ccc(CNC[C@@H]2C[C@@]3(c4ccccc4)CCN2C3)cc1 (relative stereo)', 'IC50', 2.4),
  ('c1ccc(CNC[C@H]2C[C@@]3(c4ccccc4)CCN2C3)cc1 (relative stereo)', 'IC50', 78.5),
  ('Clc1ccc(CNC[C@H]2C[C@@]3(c4ccccc4)CCN2C3)cc1 (relative stereo)', 'IC50', 11.8),
  ('Cc1ccc(CNC[C@H]2C[C@@]3(c4ccccc4)CCN2C3)cc1 (relative stereo)', 'IC50', 15.9),
  ('Cc1ccc(CNC[C@@H]2C[C@@]3(c4ccccc4)CCN2C3)cc1 (relative stereo)', 'IC50', 10);

Continue with the next molecule.
IC50 on Plasmodium falciparum for c1ccc(CNC[C@@H]2C[C@@]3(c4ccccc4)CCN2C3)cc1 (relative stereo) is 24.2
